- assay-remarks: yeast display, Sf9 membrane polyspecificity reagent, FACS + sequencing; frameworks hold sequencing errors
endpoint-label: polyreactivity (PSR sort gate)

# sequence-chain, result
rows = [
    ("QDQLVESGGGLVQAGGSLRLSCAASGITFAGNAMGWYRQAPGKERELVAAISGSGGSTSYADSVKGRFTISRDNAKNTVYLQMNSLKPEDTAVYYCAAASRLYNWHALFGSWGQGTQVTVSS", "low polyreactivity"),
    ("QVQLVESGGGLVQAGGSLRLSCAASGRTFGRYAMGWYRQAPGKERELVATITSGGSTNYADSVKGRFTISRDNAKNTVYLQMNSLKPEDTAVYYCAADVKRDRVWGGDYWGQGTQVTVSS", "low polyreactivity"),
    ("QVQLVESGGGLVQAGGSLRLSCAASGRTFRINTMGWYRQAPGKERELVATITGSGGSTYYADSVKGRFTISRDNAKNTVYLQMNSLKPEDTAVYYCAVRWYDQVSRRGIGYYWGQGTQVTVSS", "low polyreactivity"),
]
